- Tested on: 439559-082-T-J2-PDC spheroid viability
- ASSAY TEXT: Anticancer human tumor 439559-082-T-J2-PDC patient-derived colon adenocarcinoma cell line growth inhibition [POLQ]
- SETTINGS: second compound 0.1 µM; first compound 0.316 µM; stronger effect = lower value; spheroids with HUVEC and MSC
Answer each item with its documented viability, T/C.
Output spec: scalar in %, unitless text.

Ask | Fetch value of viability, T/C on 439559-082-T-J2-PDC spheroid viability for CC(C)n1c(=O)n(C)c2cnc3cc(F)c(-c4ccc(OCCCN5CCCCC5)nc4)cc3c21 + Nc1ccc(C#CCN(C(=O)Cc2ncc(C(F)(F)F)cc2C(F)(F)F)c2ccc(F)cc2)nn1 .
Reply | 104

Ask | Jot down viability, T/C (439559-082-T-J2-PDC spheroid viability) of CCCS(=O)(=O)Nc1ccc(F)c(C(=O)c2c[nH]c3ncc(-c4ccc(Cl)cc4)cc23)c1F + Cc1cccc(N(C)C(=O)C2C(O)CCN2c2nc(C)cc(C(F)(F)F)c2C#N)c1 .
Reply | 91.5

Ask | // output viability, T/C; input CC1COCCN1c1cc(C2(S(C)(=N)=O)CC2)nc(-c2ccnc3[nH]ccc23)n1 (stereo unspecified) + COC1C(OC(N)=O)C(O)C(Oc2ccc3c(O)c(NC(=O)c4ccc(O)c(CC=C(C)C)c4)c(=O)oc3c2C)OC1(C)C ; system 439559-082-T-J2-PDC spheroid viability
Reply | 105

Ask | Tell me viability, T/C of COc1cccc(OCCCN)c1-c1cc(Nc2cnc(C#N)cn2)n[nH]1 + Nc1ccc(C#CCN(C(=O)Cc2ncc(C(F)(F)F)cc2C(F)(F)F)c2ccc(F)cc2)nn1 when tested on 439559-082-T-J2-PDC spheroid viability.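 Further: spheroids exposed to compounds for seven days before readout; 100% = DMSO vehicle control viability.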
Reply | 53

Ask | Give viability, T/C for COc1ccc([C@@H](O)c2cc(-c3ncnc4cc(N5CCOCC5)ccc34)c(F)cc2Cl)nn1 + Cc1cccc(N(C)C(=O)C2C(O)CCN2c2nc(C)cc(C(F)(F)F)c2C#N)c1 tested on 439559-082-T-J2-PDC spheroid viability.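 Further: spheroids exposed to compounds for seven days before readout; 100% = DMSO vehicle control viability.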
Reply | 94.7

Ask | With 439559-082-T-J2-PDC spheroid viability as the test system, provide measured viability, T/C for this compound: C=CCn1c(=O)c2cnc(Nc3ccc(N4CCN(C)CC4)cc3)nc2n1-c1cccc(C(C)(C)O)n1 + Cc1cccc(N(C)C(=O)C2C(O)CCN2c2nc(C)cc(C(F)(F)F)c2C#N)c1
Reply | 93.1

Ask | Quote 439559-082-T-J2-PDC spheroid viability viability, T/C for entry CC1COCCN1c1cc(C2(O)CC3CCC(C2)O3)c2cnn(-c3ccn[nH]3)c2n1 (stereo unspecified) + COC1C(OC(N)=O)C(O)C(Oc2ccc3c(O)c(NC(=O)c4ccc(O)c(CC=C(C)C)c4)c(=O)oc3c2C)OC1(C)C .
Reply | 68.4

Ask | Enter measured viability, T/C, system 439559-082-T-J2-PDC spheroid viability, for the compound shown: CC1COCCN1c1cc(-c2ccnn2C)c2ccnc(-c3ccn[nH]3)c2n1 (stereo unspecified) + Cc1cccc(N(C)C(=O)C2C(O)CCN2c2nc(C)cc(C(F)(F)F)c2C#N)c1;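 further: spheroids exposed to compounds for seven days before readout; 100% = DMSO vehicle control viability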
Reply | 51.2

Ask | Provide measured viability, T/C on 439559-082-T-J2-PDC spheroid viability for O=c1[nH]cc(F)c(=O)[nH]1 + Nc1ccc(C#CCN(C(=O)Cc2ncc(C(F)(F)F)cc2C(F)(F)F)c2ccc(F)cc2)nn1 please.
Reply | 91.4

Ask | GET viability, T/C | system: 439559-082-T-J2-PDC spheroid viability | item: COc1cc(C2c3cc4c(cc3C(OC3OC5COC(C)OC5C(O)C3O)C3COC(=O)C23)OCO4)cc(OC)c1O (stereo unspecified) + COC1C(OC(N)=O)C(O)C(Oc2ccc3c(O)c(NC(=O)c4ccc(O)c(CC=C(C)C)c4)c(=O)oc3c2C)OC1(C)C;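 further: spheroids exposed to compounds for seven days before readout; 100% = DMSO vehicle control viability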
Reply | 102

Ask | Report viability, T/C on 439559-082-T-J2-PDC spheroid viability for this entry: O=C(Nc1ccc(O)c(NS(=O)(=O)c2ccc(F)cc2)c1)c1ccc(-c2ccccc2)cc1 + Cc1cccc(N(C)C(=O)C2C(O)CCN2c2nc(C)cc(C(F)(F)F)c2C#N)c1
Reply | 100
